The measurements presented in this section are drawn from ChEMBL document CHEMBL2073754.

- target-under-test: MRP4 (ABCC4) (Homo sapiens, UniProt O15439)
- Sequence (O15439 whole entry): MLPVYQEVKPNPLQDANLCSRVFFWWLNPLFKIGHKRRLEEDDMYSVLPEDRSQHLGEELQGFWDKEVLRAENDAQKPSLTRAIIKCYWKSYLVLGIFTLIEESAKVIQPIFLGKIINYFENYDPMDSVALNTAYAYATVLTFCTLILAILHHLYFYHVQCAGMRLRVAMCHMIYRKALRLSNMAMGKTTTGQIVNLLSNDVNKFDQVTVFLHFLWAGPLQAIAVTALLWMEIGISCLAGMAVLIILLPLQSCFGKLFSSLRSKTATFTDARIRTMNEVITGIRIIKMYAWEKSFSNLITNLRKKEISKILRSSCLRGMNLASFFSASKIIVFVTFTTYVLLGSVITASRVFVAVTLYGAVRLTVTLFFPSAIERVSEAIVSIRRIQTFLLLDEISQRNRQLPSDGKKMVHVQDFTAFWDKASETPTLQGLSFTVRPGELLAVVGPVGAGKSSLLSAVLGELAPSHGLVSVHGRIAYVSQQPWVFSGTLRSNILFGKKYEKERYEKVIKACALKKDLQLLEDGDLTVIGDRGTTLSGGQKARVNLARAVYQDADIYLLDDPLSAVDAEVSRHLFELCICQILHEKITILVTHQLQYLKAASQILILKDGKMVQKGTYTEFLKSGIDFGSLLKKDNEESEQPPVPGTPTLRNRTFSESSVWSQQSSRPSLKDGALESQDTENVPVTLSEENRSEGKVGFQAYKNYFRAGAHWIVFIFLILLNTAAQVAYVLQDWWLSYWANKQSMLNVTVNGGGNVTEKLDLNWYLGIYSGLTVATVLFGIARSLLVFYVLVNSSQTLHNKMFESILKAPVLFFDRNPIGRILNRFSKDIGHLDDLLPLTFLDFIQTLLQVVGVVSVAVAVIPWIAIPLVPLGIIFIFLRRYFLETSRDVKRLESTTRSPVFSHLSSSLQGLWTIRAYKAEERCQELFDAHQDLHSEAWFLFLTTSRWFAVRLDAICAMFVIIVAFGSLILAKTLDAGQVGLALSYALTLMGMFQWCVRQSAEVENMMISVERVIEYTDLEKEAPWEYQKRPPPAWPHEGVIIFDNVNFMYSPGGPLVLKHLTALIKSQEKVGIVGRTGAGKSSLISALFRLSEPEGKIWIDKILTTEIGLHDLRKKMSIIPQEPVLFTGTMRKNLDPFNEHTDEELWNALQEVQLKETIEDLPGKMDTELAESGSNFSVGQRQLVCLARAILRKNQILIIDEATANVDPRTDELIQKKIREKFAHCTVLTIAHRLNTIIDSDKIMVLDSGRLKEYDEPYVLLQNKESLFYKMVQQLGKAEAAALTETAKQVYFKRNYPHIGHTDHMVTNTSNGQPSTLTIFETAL
- method: TP_TRANSPORTER: inhibition of Taurocholate uptake in the presence of Methotrexate at a concentration of 20uM in membrane vesicles from MRP4-expressing V79 cells
- Assay type: functional, cell membranes, Membrane vesicle
- Design: scale not given: the % may be the effect or the level left
- condition: hamster, probe taurocholate, read-out: Activity
value-type: activity at 20 µM (%)
Please reply with the bare figure in % and do not write the unit itself.

In: Give MRP4 (ABCC4) (Homo sapiens, UniProt O15439) activity at 20 µM for CN(Cc1cnc2nc(N)nc(N)c2n1)c1ccc(C(=O)N[C@@H](CCC(=O)O)C(=O)O)cc1 [METHOTREXATE]
Out: 39
